# Tested on: MCF7
# PROTOCOL DETAILS: NCI tumour cell line growth inhibition, 48 h
Calls of active or inactive are those of the source. Rule as the data show it: active = GI50 up to about 1.1 µM and inactive = higher.
Use one of these outcomes when replying: active, inactive

Can you look up the reported call for CCCCCCCc1c(Cl)nc(Cl)nc1Cl for me?
inactive

Can you look up the reported call for CCOc1ccccc1/C=C1\NC(=O)N(/C=C2\C(=O)Oc3ccccc3C2=O)C1=O for me?
inactive

Can you look up the reported call for Cc1ccc2c(c1C)CC1(Cc3c(C)ccc(C)c3C1=O)C2=O (stereo unspecified) for me?
inactive

Can you look up the reported call for NC(=S)NS(=O)(=O)c1ccc(F)cc1F for me?
inactive

Can you look up the reported call for COC(=O)c1cc(C(=CCC[C@H]2CC[C@@]3(C)C(CCC4C3CC[C@@]3(C)C4CC[C@@H]3C(C)CCCC(C)C)C2)c2cc(Cl)c(O)c(C(=O)OC)c2)cc(Cl)c1O (stereo partly specified) for me?
inactive

Can you look up the reported call for NCCCc1nonc1C(=O)O for me?
inactive

Can you look up the reported call for CC1CN=C(Nc2ccc(F)cc2F)S1 (stereo unspecified) for me?
inactive

Can you look up the reported call for COc1cc2c(cc1OC)C(SC)C(=O)N(Cc1cccc(OC)c1OC)CC2 (stereo unspecified) for me?
active

Can you look up the reported call for COc1ccc(Cn2c(=O)c(OC)c(C)c3cc4ccccc4cc32)cc1 for me?
inactive

Can you look up the reported call for CC(=O)Nc1ccc(S(=O)(=O)Nc2nnc(S(N)(=O)=O)s2)cc1 for me?
inactive

Can you look up the reported call for CCOC(=O)C1Cc2ccc(C)cc2C1=O (stereo unspecified) for me?
inactive

* * *

# Tested on: SK-OV-3
# PROTOCOL DETAILS: NCI tumour cell line growth inhibition, 48 h
The source made the active and inactive calls. No stated cut-off is given here; in the data, active = GI50 up to about 1.1 µM and inactive = higher.
Use one of these outcomes when replying: label 1 = active, label 0 = inactive

Can you look up the reported call for CC(C)(Oc1ccc(/C=C/C(=O)c2ccccc2)cc1)C(=O)Nc1c(Cl)cccc1Cl for me?
label 0

Can you look up the reported call for C/C(=N/OCCC(=O)O)C1CC1 for me?
label 0

Can you look up the reported call for [N-]=[N+]=Nc1c(-c2ccccc2)c(=O)n(-c2ccccc2)c2ccccc12 for me?
label 0

Can you look up the reported call for O=CNc1ccc(S(=O)(=O)c2ccc(NC=O)cc2)cc1 for me?
label 0

Can you look up the reported call for Clc1ccc(C2=CC(c3ccccc3)N3C(=N[C@H]4CCCC[C@@H]43)N2)cc1 (stereo partly specified) for me?
label 0

Can you look up the reported call for Oc1cc(O)cc(/C=C/c2ccc(O)c(O)c2)c1 for me?
label 0

Can you look up the reported call for Nc1ncnc2c(C3OC(CO)C(O)C3O)scc12 (stereo unspecified) for me?
label 1

Can you look up the reported call for Cc1sc(C)c2c1C(=O)CC2N (stereo unspecified) for me?
label 0

Can you look up the reported call for CCOC(=O)c1nc2ccc([N+](=O)[O-])cc2c2c1CCO2 for me?
label 0

Can you look up the reported call for O=S(=O)(O)c1ccc(/N=N/c2ccc(/N=N/c3c(O)ccc4cc(S(=O)(=O)O)ccc34)cc2)cc1 for me?
label 0

Can you look up the reported call for CCN(CC)CCCNc1nncc2cc3c([nH]c4ccc(OC)cc43)c(C)c12 for me?
label 0

* * *

# System: SNB-19
# PROTOCOL DETAILS: NCI tumour cell line growth inhibition, 48 h
Activity calls are given as the source filed them. Cut-off read from the data, not from the text of the source: active = GI50 up to about 1.1 µM and inactive = higher. Where a SMILES comes first, the peptide text is derived from it. [ ]: non-standard residue; d: D form. The star is where a group is joined. Phe(4-NO2) = N[CH](Cc1ccc([N+](=O)[O-])cc1)C(=O)O; Boc = CC(C)(C)OC(=O)*; OtBu = CC(C)(C)O*
Would you kindly list GI50 for each of these molecules?

Entry CCCCCCC(=O)CC(=O)C(=O)Nc1ccccc1C , GI50 reported as > 100 µM (inactive)

Entry CCCCN1C(=O)c2c(-c3sccc3N)sc(-c3sccc3N)c2C1=O , GI50 reported as 18.9 µM (inactive)

Entry COC(=O)C(Cc1ccc([N+](=O)[O-])cc1)NC(=O)C(CC(=O)OC(C)(C)C)NC(=O)OC(C)(C)C (configuration not stated) (Boc-Asp(OtBu)-[Phe(4-NO2)]-OMe; configuration not given here) , GI50 reported as > 100 µM (inactive)

Entry CCCCCCCCCCCCCCCCOCC(Cl)COP(=O)(O)OP(=O)(O)OCC1OC(n2cc(C)c(=O)[nH]c2=O)CC1O (configuration not stated) , GI50 reported as > 100 µM (inactive)

Entry COc1cccc(C2CC(C)(N3CCCC3)Oc3cc4c(cc32)OCO4)c1O (configuration not stated) , GI50 reported as 37.6 µM (inactive)

Entry Cc1nc2ccccc2c(=O)n1/N=C(\N=N\c1ccccc1Cl)c1ccccc1 , GI50 reported as 74.1 µM (inactive)

Entry N#CC1C(C#N)C2(c3ccccc3)C(c3ccccc3)=NN(c3ccccc3)CC12 (configuration not stated) , GI50 reported as > 100 µM (inactive)

Entry COC(C(=O)NCCCCNC(=O)C(OC)c1ccccc1)c1ccccc1 (configuration not stated) , GI50 reported as > 100 µM (inactive)

Entry CC(=O)OCCN1c2ccccc2Sc2cnccc21 , GI50 reported as > 10 µM (inactive)

Entry C=CCNC1=NC(=O)C(CC(=O)Nc2ccc([N+](=O)[O-])cc2[N+](=O)[O-])S1 (configuration not stated) , GI50 reported as > 100 µM (inactive)

Entry Cc1c2c(n(CC(c3ccccc3)c3ccccc3)c1C)NN=C(C#N)S2(=O)=O , GI50 reported as > 100 µM (inactive)

Entry Cn1/c(=N\S(=O)(=O)c2ccccc2)[nH]c2ccccc21 , GI50 reported as > 100 µM (inactive)

* * *

# Test system: CCRF-CEM
# PROTOCOL DETAILS: NCI tumour cell line growth inhibition, 48 h
Calls of active or inactive are those of the source. Cut-off read from the data, not from the text of the source: active = GI50 up to about 1.1 µM and inactive = higher. Where a SMILES comes first, the peptide text is derived from it. [ ]: non-standard residue; d: D form. The star is where a group is joined. Phe(4-NO2) = N[CH](Cc1ccc([N+](=O)[O-])cc1)C(=O)O; Boc = CC(C)(C)OC(=O)*; OtBu = CC(C)(C)O*
Use one of these outcomes when replying: active, inactive

Can you look up the reported call for C=CC(=O)N1C/C(=C\c2ccccc2)C(=O)/C(=C/c2ccccc2)C1 for me?
active

Can you look up the reported call for CCCCN1C(=O)c2c(-c3sccc3N)sc(-c3sccc3N)c2C1=O for me?
inactive

Can you look up the reported call for COC(=O)C(Cc1ccc([N+](=O)[O-])cc1)NC(=O)C(CC(=O)OC(C)(C)C)NC(=O)OC(C)(C)C (stereo unspecified) (Boc-Asp(OtBu)-[Phe(4-NO2)]-OMe; configuration not given here) for me?
inactive

Can you look up the reported call for CCN/C(=N\Nc1ccc([N+](=O)[O-])cc1)P(=O)(OC(C)C)OC(C)C for me?
inactive

Can you look up the reported call for c1ccc(-c2nnc(-c3nn(-c4ccccc4)c4nc5ccccc5nc34)o2)cc1 for me?
inactive

Can you look up the reported call for CCOC(=O)c1cnc2sc3ccc4ccccc4c3n2c1=O for me?
inactive

Can you look up the reported call for NC1=C(NC(=O)Cc2ccc(F)cc2)C(=O)c2ccccc2C1=O for me?
inactive

Can you look up the reported call for CCNC(=O)Nc1ccccn1 for me?
inactive

Can you look up the reported call for CC(=O)Nc1ncc2c(n1)-c1ccccc1OC2c1ccccc1 (stereo unspecified) for me?
inactive

Can you look up the reported call for CCN(CC)C(=S)SS(=O)(=O)c1ccc(C)cc1 for me?
active

Can you look up the reported call for CC1=C2[C@H](c3ccccc3)C3C=CC2(c2ccccc23)N(C(=O)C(c2ccccc2)c2ccccc2)C1=O (stereo partly specified) for me?
inactive

Can you look up the reported call for COc1nc(=O)n(C2CC(N=[N+]=[N-])C(CO)O2)cc1C (stereo unspecified) for me?
inactive

Can you look up the reported call for CCc1ccccc1NC(=O)C1=C(C)NC(C)=C(C(=O)Nc2ccccc2CC)C1c1ccc(NC(C)=O)cc1 for me?
inactive

Can you look up the reported call for Cc1n[nH]c(=O)n1C1CCCC1 for me?
inactive

Can you look up the reported call for O/N=C1/C(=C/c2ccc(Cl)cc2)CCCC1C(NO)c1ccc(Cl)cc1 (stereo unspecified) for me?
inactive

Can you look up the reported call for Cn1c(=O)c2nc(Nc3ccccc3)[nH]c2n(C)c1=O for me?
inactive

Can you look up the reported call for Cc1sc(C)c2c1C(=O)CC2N (stereo unspecified) for me?
active

Can you look up the reported call for O=C(c1no[n+]([O-])c1C(=O)c1csc2ccccc12)c1csc2ccccc12 for me?
active

Can you look up the reported call for CCOC(=O)NC(C(F)(F)F)(C(F)(F)F)P(=O)(OCC)OCC for me?
inactive

Can you look up the reported call for COC(=O)[C@@]12C3=NO[C@]1(C(=O)OC)C(O[Si](C)(C)C(C)(C)C)[C@H]1OC(C)(C)O[C@H]1[C@@H]2C(OCc1ccccc1)CC3 (stereo partly specified) for me?
inactive

Can you look up the reported call for CC(=O)C1C(=O)C(=O)N(c2cccc([N+](=O)[O-])c2)C1=O (stereo unspecified) for me?
inactive

Can you look up the reported call for CC1(C)OC2[C@@H](CO[C@@]3([C@H]4OC(C)(C)O[C@@H]4CO)OC(C)(C)O[C@@H]23)O1 (stereo partly specified) for me?
inactive

Can you look up the reported call for NC(=S)NS(=O)(=O)c1ccc(F)cc1F for me?
inactive

Can you look up the reported call for O=C1C=C2SC3C[C@@]24CC1[N+]1=c2c4c(c(O)c4c2=C(C=N4)CC1)N3 for me?
inactive

Can you look up the reported call for O=C1c2ccccc2N2OC3C4CCC(C4)C3C12c1ccccc1 (stereo unspecified) for me?
inactive

Can you look up the reported call for c1nc(OCC2CCCCC2)c2nc[nH]c2n1 for me?
inactive

Can you look up the reported call for CC(=O)NC1C(OCc2ccccc2)OC(COC(=O)CCCCCNc2ccc([N+](=O)[O-])c3[nH]c4ccc(O)cc4c(=O)c23)C(O)C1OC(C)C(=O)N[C@@H](C)C(=O)N[C@H](CCC(=O)OCc1ccccc1)C(N)=O (stereo partly specified) for me?
inactive

Can you look up the reported call for Cc1c(N2C(=O)/C(=C/C=C/c3ccccc3)N=C2c2ccccc2)c(=O)n(-c2ccccc2)n1C for me?
inactive

Can you look up the reported call for COc1ccc(C=O)cc1OS(=O)(=O)C(F)(F)C(F)(F)C(F)(F)C(F)(F)F for me?
inactive

Can you look up the reported call for CC(C)c1ccc(/C=C2/C=C(c3ccc4ccccc4c3)OC2=O)cc1 for me?
inactive

Can you look up the reported call for O=c1[nH]c(=O)n(CCOCP(=O)(O)O)nc1Br for me?
inactive

Can you look up the reported call for Cc1ccccc1-c1c(N)nc(N)nc1C(=O)Nc1nccs1 for me?
inactive

Can you look up the reported call for COc1ccc(C(=O)CC(=O)C(=O)Nc2ccc(C)c(C)c2)cc1 for me?
inactive

Can you look up the reported call for Oc1cc(O)cc(/C=C/c2ccc(O)c(O)c2)c1 [PICEATANNOL] for me?
inactive

Can you look up the reported call for COc1cc(/C=C/C(=O)c2cccc3ccccc23)cc(OC)c1OC for me?
inactive

Can you look up the reported call for c1ccc(C2=NN3CN(N2)c2ccccc2OCCCOc2ccccc23)cc1 for me?
inactive

Can you look up the reported call for COC1(OC)C2(Cl)C3=CCCC=C3C1(Cl)C(Cl)=C2Cl for me?
inactive

Can you look up the reported call for NCCNCCNc1ccc(NCCNCCN)c2c1C(=O)c1c(O)ccc(O)c1C2=O for me?
inactive

Can you look up the reported call for C=C(C)[C@H]1CC[C@@]2(C)C(C1)[C@H](C)CC[C@@H]2O (stereo partly specified) for me?
inactive

Can you look up the reported call for CN(C)/C(=N/C(=S)Nc1ccccc1)SCc1ccccc1 for me?
inactive

Can you look up the reported call for c1ccc(OCc2nnc3n2N=C(c2ccccc2)CS3)cc1 for me?
inactive
